Listed here are molecules together with their documented ka.
test-target: T1, cynomolgus PRLR ECD (Macaca fascicularis, UniProt A0A2K5WXK1)
T1 construct: antibodies against human and cynomolgus PRLR ECD
T1 sequence (A0A2K5WXK1 25-234): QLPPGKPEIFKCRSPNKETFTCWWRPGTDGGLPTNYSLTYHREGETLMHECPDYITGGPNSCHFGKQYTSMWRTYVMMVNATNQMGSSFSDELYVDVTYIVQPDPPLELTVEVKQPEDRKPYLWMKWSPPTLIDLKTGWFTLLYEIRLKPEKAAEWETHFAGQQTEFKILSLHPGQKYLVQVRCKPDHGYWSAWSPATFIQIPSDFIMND
experiment-notes: Biacore kinetic titration, antibody captured on Protein A/G
Assay type: binding
measurement-setup: Table 9, Cyno PRLR ECD; unit not given
measurement-kind: ka

molecule	number
he.06.275-4: HUMAN-ENGINEERED antibody from XHA.06.275; variable regions SEQ ID NO: 92 and SEQ ID NO: 94 by order of listing (antibody, V domains shown) VH: QVQLQESGPGLVKPSQTLSLTCTVSGYSITSDYAWNWIRQFPGKGLEWMGYISYSGSTSYNPSLKSRITISRDTSKNQFSLQLNSVTAADTAVYFCARDYGYVFDYWGQGTTLTVSS VL: DVQITQSPSSLSASPGDRITLTCRASKNIYKYLAWYQEKPGKANKLLIYSGSTLHSGIPSRFSGSGSGTDFTLTISSLQPEDFAMYYCQQHNDYPYTFGQGTKLEIK	3.6E+05
he.06.642-1: HUMAN-ENGINEERED antibody from XHA.06.642; variable regions SEQ ID NO: 88 and SEQ ID NO: 89 by order of listing (antibody, V domains shown) VH: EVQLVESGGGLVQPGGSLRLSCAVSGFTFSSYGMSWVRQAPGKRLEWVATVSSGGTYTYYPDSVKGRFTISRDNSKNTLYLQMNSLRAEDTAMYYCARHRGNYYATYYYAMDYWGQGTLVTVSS VL: DIVLTQSPDSLAVSLGERATINCKASKSVSTSGYTYMHWYQQKPGQPPKLLIYLASNRESGVPDRFSGSGSGTDFTLTISPVQAEDVATYYCQHSGELPPSFGQGTKLEIK	1.2E+05
he.06.275-3: HUMAN-ENGINEERED antibody from XHA.06.275; variable regions SEQ ID NO: 92 and SEQ ID NO: 93 by order of listing (antibody, V domains shown) VH: DVQLQESGPGLVKPSQTLSLTCTVTGYSITSDYAWNWIRQFPGKKLEWMGYISYSGSTSYNPSLKSRITISRDTSKNQFSLQLNSVTAADTATYFCARDYGYVFDYWGQGTTLTVSS VL: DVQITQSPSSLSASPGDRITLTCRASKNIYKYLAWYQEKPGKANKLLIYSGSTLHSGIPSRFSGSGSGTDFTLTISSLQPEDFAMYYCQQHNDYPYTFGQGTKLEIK	3.9E+05
he.06.642-2: HUMAN-ENGINEERED antibody from XHA.06.642; variable regions SEQ ID NO: 88 and SEQ ID NO: 90 by order of listing (antibody, V domains shown) VH: EVQLVESGGGLVQPGGSLRLSCAVSGFTFSSYGMSWVRQAPGKGLEWVATVSSGGTYTYYPDSVKGRFTISRDNSKNTLYLQMNSLRAEDTAVYYCARHRGNYYATYYYAMDYWGQGTLVTVSS VL: DIVLTQSPDSLAVSLGERATINCKASKSVSTSGYTYMHWYQQKPGQPPKLLIYLASNRESGVPDRFSGSGSGTDFTLTISPVQAEDVATYYCQHSGELPPSFGQGTKLEIK	1.8E+05
he.06.275-2: HUMAN-ENGINEERED antibody from XHA.06.275; variable regions SEQ ID NO: 91 and SEQ ID NO: 94 by order of listing (antibody, V domains shown) VH: QVQLQESGPGLVKPSQTLSLTCTVSGYSITSDYAWNWIRQFPGKGLEWMGYISYSGSTSYNPSLKSRITISRDTSKNQFSLQLNSVTAADTAVYFCARDYGYVFDYWGQGTTLTVSS VL: DVQITQSPSSLSASPGDRITLTCRASKNIYKYLAWYQEKPGKTNNLLIYSGSTLHSGIPSRFSGSGSGTDFTLTISSLQPEDFAMYYCQQHNDYPYTFGQGTKLEIK	3.7E+05
he.06.275-1: HUMAN-ENGINEERED antibody from XHA.06.275; variable regions SEQ ID NO: 91 and SEQ ID NO: 93 by order of listing (antibody, V domains shown) VH: DVQLQESGPGLVKPSQTLSLTCTVTGYSITSDYAWNWIRQFPGKKLEWMGYISYSGSTSYNPSLKSRITISRDTSKNQFSLQLNSVTAADTATYFCARDYGYVFDYWGQGTTLTVSS VL: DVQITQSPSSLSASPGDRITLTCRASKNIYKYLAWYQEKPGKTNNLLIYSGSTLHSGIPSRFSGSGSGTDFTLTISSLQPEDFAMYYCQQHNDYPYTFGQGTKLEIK	3.6E+05
